B1: library; a variant is named by its letters at N, in order (parent)
chain: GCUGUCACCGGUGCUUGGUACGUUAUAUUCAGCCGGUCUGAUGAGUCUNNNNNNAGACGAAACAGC

- Variants of: B1
- procedure_summary: normalized RNA/DNA level with ligand (relative to sTRSVctl = 100) (log10 (% of sTRSVctl)); HEK293T overexpressing SLC46A1; ligand concentration (+) RNA-Seq: 6 mM; higher = less ribozyme self-cleavage, higher mRNA level
- applied_conditions: with (6R,S)-folinic acid; ligand present: yes
observation_type: normalized RNA/DNA level with ligand (log10)

Known normalized RNA/DNA level with ligand (log10) results, listed for orientation:
>  <mutant_label>
GCUUUC

>  <value_reported>
2.01

$$$$
>  <mutant_label>
GUGACC

>  <value_reported>
2.02

$$$$
>  <mutant_label>
GAAGUU

>  <value_reported>
2.04

$$$$
>  <mutant_label>
AUGAAA

>  <value_reported>
1.98

$$$$
>  <mutant_label>
UCGAAA

>  <value_reported>
1.98

$$$$
>  <mutant_label>
UUGUUA

>  <value_reported>
2.07

$$$$

Ask: Which normalized RNA/DNA level with ligand (log10) value belongs to `UGAAAU` ?
Reply: 1.97

Ask: Which normalized RNA/DNA level with ligand (log10) value belongs to `CUCCCC` ?
Reply: 2

Ask: Which normalized RNA/DNA level with ligand (log10) value belongs to `CCCGCU` ?
Reply: 2.08

Ref: the supplement of paper PMC6757056
